- Tested on: Nuclear hormone receptor DAF-12 (Strongyloides stercoralis)
- assay.procedure: S. stercoralis DAF-12 nuclear receptor activators, primary screen, cell-based, luminescence, HEK293, GRIP1 co-expression, lit1-tk-luc (AID 652126);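 also: 0% = DMSO-only wells and 100% = 3 µM delta7-dafachronic acid wells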
- condition.summary: HEK293 ssDAF-12/GRIP1 lit1-tk-luc reporter, at 6.8 µM, stronger effect = higher value, % of 3 µM dafachronic acid response
In all, about 370,000 compounds went through this assay and about 3,700 (1%) were called active. This excerpt belongs to a sample that is enriched for actives.
In this section, each of the molecules is paired with its reported activation.
# unit: % | format: bare number

Please review the following examples before continuing.
>>> quantitative_result("O=C(Nc1ccccc1)N1CCN(Cc2nc3ccccc3c(=O)[nH]2)CC1")
-0.67
>>> quantitative_result("COc1ccc(C(=O)OCC(=O)NCC2CCCO2)cc1[N+](=O)[O-] (stereo unspecified)")
-1.82
>>> quantitative_result("O=C(NC1CCCC1)C1CSCCS(=O)(=O)N1Cc1ccccc1 (stereo unspecified)")
-1.05

Here's the next entry for you.
Incoming: I'd like to know its activation. The molecule in question is "O=C(O/N=C(/c1ccccc1)c1ccncc1)c1ccccc1[N+](=O)[O-]"
Outgoing: -0.74
